System: 786-0
Assay: NCI tumour cell line growth inhibition, 48 h
The source made the active and inactive calls. Rule as the data show it: active = GI50 up to about 1.1 µM and inactive = higher.
Would you kindly list GI50 for each of these molecules?

**Query** Jot down GI50 (786-0) of "Nc1ccc2c(=O)cc(-c3ccc(Br)s3)[nH]c2n1" .
**Result** 4.02 µM (inactive)

**Query** Enter GI50 (test system 786-0) for CN1C(=O)CC2CCCN2C1=O (stereo unspecified)
**Result** > 100 µM (inactive)

**Query** Please look at COc1c(OC(C)=O)c(OC(C)=O)cc2c1-c1ccc(SC)c(=O)cc1C(NC(C)=O)CC2 (stereo unspecified) and tell me its recorded GI50 on 786-0.
**Result** 1.69 µM (inactive)

**Query** Report the value of GI50 obtained on 786-0 for Cc1c(C)c2ccc(OC(C)C(=O)O)cc2oc1=O (stereo unspecified) .
**Result** > 100 µM (inactive)

**Query** System 786-0. Read-out GI50. Item "Nc1nc(-c2ccc(Cl)c([N+](=O)[O-])c2)cs1" . Report value.
**Result** 59.4 µM (inactive)

**Query** Report GI50 from 786-0 testing of "O=C(O)c1ccc2c(c1)Cc1cc([N+](=O)[O-])ccc1-2"
**Result** > 100 µM (inactive)

**Query** # return GI50 of COC(=O)c1ccccc1C1CN=NC12Cc1c(ccc3c1CCC3)C2=O (stereo unspecified) (system: 786-0)
**Result** > 100 µM (inactive)

**Query** Find the measured GI50 of CC(=O)OC(C)c1cc2c(s1)C(=O)c1ccsc1C2=O (stereo unspecified) with 786-0 as test system.
**Result** 0.286 µM (active)

**Query** Output reported GI50 of the molecule C=C1C(=O)OC2/C=C(\COC(C)=O)CCC(OC(C)=O)C3=CC(OC3=O)C12 (stereo unspecified) on 786-0.
**Result** 6.56 µM (inactive)

**Query** Fetch value of GI50 on 786-0 for CC(C)(Cl)C(Br)CCC(C)(Cl)C(Br)CBr (stereo unspecified) .
**Result** 24.5 µM (inactive)

**Query** Report its GI50 with 786-0 as the test system: c1cc(C2O[C@H]3CCCN3[C@@H]2c2ccncc2)ccn1 (stereo partly specified)
**Result** > 100 µM (inactive)

**Query** GET GI50 where system = 786-0 and item = "Oc1ccc(Br)cc1/C=N/c1ccc(/N=C/c2cc(Br)ccc2O)cc1"
**Result** > 100 µM (inactive)

**Query** Report measured GI50 on 786-0; entry: "CCOC(=O)c1cc([N+](=O)[O-])cc([N+](=O)[O-])c1Sc1[nH]cnc2ncnc1-2"
**Result** 0.824 µM (active)

**Query** Write GI50 of "Sc1nnc(C23CC4CC(CC(C4)C2)C3)n1-c1ccc(Cl)cc1" ; system used: 786-0
**Result** 14.6 µM (inactive)

**Query** Recall the reported GI50 of "COC(=O)/C=C/CC(=O)NS(C)(=O)=O" on 786-0 and write it down.
**Result** > 10 µM (inactive)

**Query** Write GI50 of "CC1=CCC[C@]2(C)C1=CC(=O)O[C@H]2c1ccoc1" ; system used: 786-0
**Result** > 100 µM (inactive)

**Query** Provide GI50, recorded with 786-0, of "COc1cc(/C=C(\C#N)C(N)=C(C#N)C#N)cc(O)c1O"
**Result** > 100 µM (inactive)

**Query** Find GI50 for CCOC(=O)C(NC(=O)CC)(Nc1ccc(S(=O)(=O)Nc2ccc(OC)nn2)cc1)C(F)(F)F (stereo unspecified) on 786-0 and write it down.
**Result** > 100 µM (inactive)

**Query** Find GI50 for "Cn1c(SCc2ccc(F)cc2)nnc1C12CC3CC(CC(C3)C1)C2" on 786-0 and write it down.
**Result** 35.8 µM (inactive)

**Query** Report GI50 under test system 786-0 for Clc1cccc(N2CCN(CCCN3CCc4c([nH]c5ccccc45)C3c3cccnc3)CC2)c1 (stereo unspecified) .
**Result** 3.29 µM (inactive)

**Query** Give the observed GI50 of CC1OC(OC2C(OC(=O)[C@]34CCC(C)(C)C[C@H]3C3=CC[C@@H]5[C@@]6(C)CC[C@H](OC7OC(C(=O)O)C(O)C(O)C7O)C(C)(C)[C@@H]6CC[C@@]5(C)[C@]3(C)C[C@H]4O)OCC(O)C2O)C(O)C(O)C1OC1OCC(OC2OCC(O)C(O)C2O)C(O)C1O (stereo partly specified) for 786-0.
**Result** 11.1 µM (inactive)

**Query** Param request: GI50 | system 786-0 | item "O=Cc1[nH]c2ccccc2c1Br"
**Result** 28 µM (inactive)

**Query** Retrieve GI50 on 786-0; query CCCCCC(/C=N/NC(N)=S)C(O)(C(F)(F)F)C(F)(F)F (stereo unspecified)
**Result** > 10 µM (inactive)

**Query** Given CC1OC(OC2C(O[C@H]3CC[C@@]4(C)[C@@H](CC[C@@H]5[C@@H]4CC[C@]4(C)[C@@H]6[C@H](C[C@@H]54)O[C@]4(CC[C@@H](C)CO4)[C@H]6C)C3)OC(CO)C(OC3OC(CO)C(O)C(OC4OCC(O)C(O)C4O)C3OC3OCC(O)C(O)C3O)C2O)C(O)C(O)C1O (stereo partly specified) , report its GI50 on 786-0.
**Result** 1.64 µM (inactive)

**Query** Would you please give the reported GI50 of "CCOP(=O)(OCC)/C(C#N)=C/c1coc2cc(C)cc(C)c2c1=O" with 786-0?
**Result** > 100 µM (inactive)

**Query** Please indicate recorded GI50 of CC(=O)OCC1OC(n2ncc(=O)[nH]c2=O)C(OC(C)=O)C1OC(C)=O (stereo unspecified) measured with 786-0.
**Result** 4.04 µM (inactive)

----------
Test system: OVCAR-8
Test: NCI tumour cell line growth inhibition, 48 h
Active and inactive are the calls of the source. No stated cut-off is given here; in the data, active = GI50 up to about 1.1 µM and inactive = higher.
Exercise: for every item that follows, state its recorded GI50.

**Query** Give the reported value of GI50 for this record: "Cc1ccc(N2C(=O)C=C(C3=C(O)C(=O)N(c4ccc(C)cc4)C3=O)C2=O)cc1"
**Result** > 100 µM (inactive)

**Query** Name the recorded GI50 of the item "O=C1C=CC(=O)C12CCc1ccccc12" in your answer.
**Result** > 100 µM (inactive)

**Query** Return reported GI50. Input compound: "Clc1ccc(-c2c(C3=NCCCN3)nnn2-c2ccccc2)cc1"
**Result** > 100 µM (inactive)

**Query** Return reported GI50. Input compound: "COc1ccc(CCCCNCc2cccc(CNCCCCc3ccc(OC)cc3)c2)cc1"
**Result** 1.8 µM (inactive)

**Query** Given the compound Clc1cccc(N2CCN(CCCN3CCc4c([nH]c5ccccc45)C3c3cccnc3)CC2)c1 (stereo not given) , write its reported GI50.
**Result** 10.8 µM (inactive)

**Query** Hello, please tell me recorded GI50 for this one: COC(=O)CCC1(C)C2CCC1/C(=N/O)C2 (stereo not given)
**Result** > 100 µM (inactive)

**Query** Give me measured GI50, please, for this compound: "CCCCCCOc1ccc(NC2=C(Cl)C(=O)c3c(O)ccc(O)c3C2=O)cc1"
**Result** 2.09 µM (inactive)

**Query** Return GI50 for the following compound: "O=C(/C=C/c1ccc(OCC(=O)N2CCN(c3ccccc3)CC2)cc1)c1ccccc1"
**Result** 10.9 µM (inactive)

**Query** Return value of GI50 for input "O=C(c1ccccc1)N1CCN(C(=S)N(C(=O)c2ccccc2)c2ccccc2)C1=S" , no commentary.
**Result** 3.13 µM (inactive)

**Query** Name the recorded GI50 of the item "CCc1nc(N)nc(N)c1-c1ccc(NCCN)c([N+](=O)[O-])c1" in your answer.
**Result** 7.67 µM (inactive)

----------
System: RPMI-8226
Experiment: NCI tumour cell line growth inhibition, 48 h
Active and inactive are the calls of the source. Rule as the data show it: active = GI50 up to about 1.1 µM and inactive = higher.
Please state which outcome applies, choosing from active, inactive

**Query** Entry NC(=O)c1cn(C2OC(CO)C(O)C2O)c2nc[n+]([O-])c(N)c12 (stereo unspecified) : call = ?
**Result** active

**Query** Outcome logged for "CCOC(=O)C1(Br)S(=O)(=O)OCCOS1(=O)=O" in this assay:
**Result** inactive

**Query** Returns: the outcome recorded for "CC[C@@H]1CC[C@@H]2[C@H](CC[C@]3(C)[C@@H](OS(=O)(=O)c4ccc(C)cc4)CC[C@@H]23)[C@H]1COS(=O)(=O)c1ccc(C)cc1" in this assay.
**Result** inactive

**Query** Could you kindly confirm the outcome this assay logged for "C1CSC(=[N+]2CC[N+](=C3SCCS3)CC2)S1" ?
**Result** inactive

**Query** In this assay, the call recorded for Cc1ccccc1NC(=O)CC(=O)NNC(Sc1ccccc1)c1cc(/N=N/c2ccc(Br)cc2)ccc1O (stereo unspecified) was what?
**Result** inactive

**Query** What is the recorded call for this compound in the test? "CN(C)C=C1C(Cl)=C(C=O)CC(C=O)=C1Cl"
**Result** inactive

**Query** Tell me the recorded outcome of this test for "Cc1cc(OC(=O)NCn2cc(-c3ccccc3)nn2)ccc1Cl" .
**Result** inactive

**Query** Could you check what this test reported for "NNc1nnc(-c2nnc(NN)o2)o1" ?
**Result** inactive

**Query** Hi, do you know how "O=[N+]([O-])c1ccc2c(/N=N/c3ccc4ccccc4c3O)c(O)cc(S(=O)(=O)O)c2c1" came out in this test?
**Result** inactive

**Query** Can you look up the reported call for "Nc1c(/C=C/c2cc3cc(C4=NCCN4)ccc3o2)[nH]c2cc(C3=NCCN3)ccc12" for me?
**Result** inactive

**Query** For "COc1ccc(CCc2cc(OC)c(OC)c(OC)c2)cc1" , what call appears in the results of this test?
**Result** active

Cited source: ChEMBL document CHEMBL1201862
